Test system: NCI/ADR-RES
protocol: NCI tumour cell line growth inhibition, 48 h
Active and inactive are the calls of the source. Cut-off read from the data, not from the text of the source: active = GI50 up to about 1.1 µM and inactive = higher. Square brackets hold non-standard residues; d marks the D form. Peptide text beside a SMILES is read from it. * marks the point of attachment. Boc = CC(C)(C)OC(=O)*; Lac = C[CH](O)C(=O)O; OBn = c1ccc(CO*)cc1
Hi there, I'd appreciate the recorded GI50 for every entry that follows.

Q: Please report the recorded GI50 for OC(CC(O)(C(F)(F)F)C(F)(F)F)c1ccc(C(O)CC(O)(C(F)(F)F)C(F)(F)F)cc1 (stereo not drawn) .
Result: 14.6 µM (inactive)

Q: Let us now turn to CCOC(=O)c1c(-c2ccc(OC)cc2)c(C#N)c(=S)n(C2OC(COC(C)=O)C(OC(C)=O)C(OC(C)=O)C2OC(C)=O)c1-c1ccccc1 (stereo not drawn)
Result: > 100 µM (inactive)

Q: Also `Cc1cn([C@@H]2O[C@H](CO)[C@@H](O)[C@@H]2O)c(=O)[nH]c1=O` ?
Result: > 1000 µM (inactive)

Q: Now consider `N/C(=N\N/C=C1\C=Nc2cc(C(F)(F)F)ccc2C1=O)NO` .
Result: > 10 µM (inactive)

Q: Entry to check: O=C=NCCCCCCN1C(=O)N2C(c3ccccc3)N(CCCCCCN=C=O)C(=O)N2C1c1ccccc1 (stereo not drawn)
Result: > 100 µM (inactive)

Q: Let us now turn to `CC(=O)Oc1ccc(/C=C/C(=O)O[C@H]2CCCC[C@@H]2OC(=O)/C=C/c2ccc(OC(C)=O)c(OC(C)=O)c2)cc1OC(C)=O`
Result: 19.2 µM (inactive)

Q: Next: `CN(C)C(=O)N1N[C@H](c2ccccc2)[C@@H]1c1ccccc1`
Result: > 100 µM (inactive)

Q: Please do the same for `CCOP(=O)(OCC)/C(=C/NC(=S)c1ccncc1)C(=O)OC` as well.
Result: > 100 µM (inactive)

Q: And the next one, `CC(=O)c1csc2c1C(=O)c1scc(C(C)=O)c1C2=O` ?
Result: 1.61 µM (inactive)

Q: Also, CC(OC(=O)C(Cc1ccccc1)NC(=O)C(Cc1ccccc1)NC(=O)OC(C)(C)C)C(=O)OCc1ccccc1 (stereo not drawn) (Boc-Phe-Phe-[Lac]-OBn; configuration not given here) please.
Result: > 100 µM (inactive)

Q: Now consider O=C1CSC(/C=C/c2ccccc2)N1c1nc2cc3sc(N4C(=O)CSC4/C=C/c4ccccc4)nc3cc2s1 (stereo not drawn) .
Result: > 87.1 µM (inactive)

Q: // query: NC(=O)CC1OC(=O)Cc2cc3c(c(O)c21)C(=O)c1c(O)cccc1C3=O (stereo not drawn)
Result: > 100 µM (inactive)

Q: Then what about the molecule `N=C(N)N/N=C/c1c(-c2cc([N+](=O)[O-])c(Cl)cc2Cl)nc2n1CCS2` ?
Result: > 100 µM (inactive)

Q: Entry CC(C)C1=CC23CCC4C(C)(C(=O)O)CCCC4(C)C2CC1C(C(=O)O)C3C(=O)O (stereo not drawn) please
Result: > 100 µM (inactive)

Q: Param item: `Cc1c(C(=O)O)sc2nc[nH]c(=O)c12`
Result: > 100 µM (inactive)

Q: Now consider `COC1=CC(=O)C[C@@H](C)[C@]12Oc1c(Cl)c(OC)cc(OC)c1C2=O` and answer again.
Result: 12.3 µM (inactive)

Q: Same question, `O=C1Nc2ccc(Cl)cc2/C1=C\c1c(Cl)nc2sccn12` this time
Result: 3.1 µM (inactive)

Q: Same read-out for `Nc1ccccc1C(=O)N/N=C1\C(=O)Nc2ccccc21` ?
Result: > 100 µM (inactive)
